The reported measurements were obtained from patent US20260116991A1.

biological target: biotinylated labeled human GPC3 protein (produced in-house) (human, UniProt P51654 25-559, limits assumed, biotinylated (Dojindo, Cat. No. LK03); sites not stated); assay: ELISA, biotinylated human GPC3 protein
Quick reference for OD450 at 13.33 nM among some binders
Give a bare numeral; the unit OD450 is implied.

Below, 2 binders whose answers are already recorded.
hAb006LH1L1b (antibody, human IgG1, V domains shown, Humanized F3.38.7; VH H1 + VL L1b; expressed as human IgG1) VH: EVQLVQSGAEVKKPGSSVKVSCKASGYTFSDYEIHWVRQAPGQGLEWMGAIDPKTGNTAYNQKFMGRVTITADKSTSTAYMELSSLRSEDTAVYYCTRYFSFAYWGQGTLVTVSS VL: DIVMTQTPLSLPVTPGEPASISCRSSQTFVHSNANTYLQWYLQKPGQSPQLLIYKVSNRFSGVPDRFSGSGSGTDFTLKISRVEAEDVGVYYCFQGSHVPYTFGQGTKLEIK    2.47
hAb003LH3L1b (antibody, human IgG1, V domains shown, Humanized F2.154.1; VH H3 + VL L1b; expressed as human IgG1) VH: EVQLVQSGAEVKKPGSSVKVSCKASGYRFTDYEMHWVRQAPGQGLEWMGTIDPETGNTAYTQKFMDRVTLTADKSTSTAYMELSSLRSEDTAVYYCTRGYSFTYWGQGTLVTVSS VL: DIVMTQTPLSLPVTPGEPASISCRSSQNIVHSNRNTYLQWYLQKPGQSPQLLIFKVSNRFSGVPDRFSGSGSGTDFTLKISRVEAEDVGVYYCFQGSHVPFTFGQGTKLEIK    2.59

The record that follows has no OD450 at 13.33 nM shown yet.
IN: Look up and report measured OD450 at 13.33 nM for this entry: hAb006LH2L1b (antibody, human IgG1, V domains shown, Humanized F3.38.7; VH H2 + VL L1b; expressed as human IgG1) VH: EVQLVQSGAEVKKPGSSVKVSCKASGYTFTDYEIHWVRQAPGQGLEWMGAIDPKTGNTAYNQKFMGRVTITADKSTSTAYMELSSLRSEDTAVYYCTRYFSFAYWGQGTLVTVSS VL: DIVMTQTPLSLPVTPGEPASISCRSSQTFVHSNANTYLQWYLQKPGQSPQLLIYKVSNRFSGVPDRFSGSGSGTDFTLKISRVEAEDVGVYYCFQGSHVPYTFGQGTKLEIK
OUT: 2.4
